These entries and their values trace back to patent US20250066335A1.

# measured target: GPR84 (Homo sapiens)
# Sequence (Q9NQS5 whole entry): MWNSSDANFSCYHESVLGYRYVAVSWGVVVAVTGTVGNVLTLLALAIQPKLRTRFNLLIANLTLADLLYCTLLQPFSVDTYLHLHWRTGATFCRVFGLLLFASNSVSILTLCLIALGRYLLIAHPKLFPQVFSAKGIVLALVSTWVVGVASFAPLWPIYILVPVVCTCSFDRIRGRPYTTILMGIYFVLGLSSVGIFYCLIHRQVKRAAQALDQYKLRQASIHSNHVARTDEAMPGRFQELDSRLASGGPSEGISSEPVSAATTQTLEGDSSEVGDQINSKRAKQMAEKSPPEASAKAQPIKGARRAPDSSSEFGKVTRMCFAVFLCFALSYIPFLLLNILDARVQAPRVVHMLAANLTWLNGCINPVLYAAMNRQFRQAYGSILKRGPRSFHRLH
# assay comment: PRESTO-Tango β-arrestin2 recruitment assay, GPR84 antagonistic activity
# reported conditions: antagonist activity in the Presto-TANGO assay; inhibition of the response from the agonist ZQ-16 (100 nM); HTLA cells
quantity kind: IC50 (nM)
Only the number, expressed in nM, is required.

Use these answered entries as a reference point.
>>> measured_result("CCCc1ccc(CCc2nc(OCC3CCCCO3)cc(O)c2C)cc1 (stereo not drawn)")
1.32
>>> measured_result("CCCc1ccc(CCc2nc(OCC3CCCCO3)cc(O)c2CC)cc1 (stereo not drawn)")
2.14

Query block: Indicate the recorded IC50 value for this compound: CCCc1ccc(CCc2nc(OCC3CCCCO3)cc(O)c2CCc2ccccc2)cc1 (stereo not drawn)
Result block: 178
